- experimentalDetails: Pharmacokinetics in plasma after single bolus intravenous injection
- experimentalConditions: dog, 0.3 mg/kg
measuredAttribute: half-life (h)
Numeric only. Scale: h

Respond only with half-life recorded for CCCCCC/C=C\CCCCCCCCCC(=O)N[C@H]1[C@H](OC[C@H]2O[C@H](OP(=O)(O)O)[C@H](NC(=O)CC(=O)CCCCCCCCCCC)[C@@H](OCCCCCCCCCC)[C@@H]2O)O[C@H](COC)[C@@H](OP(=O)(O)O)[C@@H]1OCC[C@@H](CCCCCCC)OC
50.4

====

- experimentalDetails: Pharmacokinetics in plasma after 72 hours intravenous infusion
- experimentalConditions: male, beagle, dog, 0.1 mg/kg
measuredAttribute: half-life (h)
Numeric only. Scale: h

Respond only with half-life recorded for CCCCCC/C=C\CCCCCCCCCC(=O)N[C@H]1[C@H](OC[C@H]2O[C@H](OP(=O)(O)O)[C@H](NC(=O)CC(=O)CCCCCCCCCCC)[C@@H](OCCCCCCCCCC)[C@@H]2O)O[C@H](COC)[C@@H](OP(=O)(O)O)[C@@H]1OCC[C@@H](CCCCCCC)OC
38.4

====

- experimentalDetails: Pharmacokinetics in plasma after 72 hours intravenous infusion
- experimentalConditions: male, beagle, dog, 0.1 mg/kg
measuredAttribute: AUC(0-t) (µg·h/mL)
Numeric only. Scale: µg·h/mL

Respond only with AUC(0-t) recorded for CCCCCC/C=C\CCCCCCCCCC(=O)N[C@H]1[C@H](OC[C@H]2O[C@H](OP(=O)(O)O)[C@H](NC(=O)CC(=O)CCCCCCCCCCC)[C@@H](OCCCCCCCCCC)[C@@H]2O)O[C@H](COC)[C@@H](OP(=O)(O)O)[C@@H]1OCC[C@@H](CCCCCCC)OC
1070

====

- experimentalDetails: Pharmacokinetics in plasma after 72 hours intravenous infusion
- experimentalConditions: female, beagle, dog, 0.1 mg/kg
measuredAttribute: concentration at 72 h (ng/mL)
Numeric only. Scale: ng/mL

Respond only with concentration at 72 h recorded for CCCCCC/C=C\CCCCCCCCCC(=O)N[C@H]1[C@H](OC[C@H]2O[C@H](OP(=O)(O)O)[C@H](NC(=O)CC(=O)CCCCCCCCCCC)[C@@H](OCCCCCCCCCC)[C@@H]2O)O[C@H](COC)[C@@H](OP(=O)(O)O)[C@@H]1OCC[C@@H](CCCCCCC)OC
10400

====

- experimentalDetails: Pharmacokinetics in plasma after single bolus intravenous injection
- experimentalConditions: dog, 0.3 mg/kg
measuredAttribute: AUC (µg·h/mL)
Numeric only. Scale: µg·h/mL

Respond only with AUC recorded for CCCCCC/C=C\CCCCCCCCCC(=O)N[C@H]1[C@H](OC[C@H]2O[C@H](OP(=O)(O)O)[C@H](NC(=O)CC(=O)CCCCCCCCCCC)[C@@H](OCCCCCCCCCC)[C@@H]2O)O[C@H](COC)[C@@H](OP(=O)(O)O)[C@@H]1OCC[C@@H](CCCCCCC)OC
271

====

- experimentalDetails: Pharmacokinetics in plasma after 72 hours intravenous infusion
- experimentalConditions: female, beagle, dog, 0.1 mg/kg
measuredAttribute: half-life

Respond only with half-life recorded for CCCCCC/C=C\CCCCCCCCCC(=O)N[C@H]1[C@H](OC[C@H]2O[C@H](OP(=O)(O)O)[C@H](NC(=O)CC(=O)CCCCCCCCCCC)[C@@H](OCCCCCCCCCC)[C@@H]2O)O[C@H](COC)[C@@H](OP(=O)(O)O)[C@@H]1OCC[C@@H](CCCCCCC)OC
40.9 h

====

- experimentalDetails: Pharmacokinetics in plasma after 72 hours intravenous infusion
- experimentalConditions: female, beagle, dog, 0.1 mg/kg
measuredAttribute: AUC(0-t) (µg·h/mL)
Numeric only. Scale: µg·h/mL

Respond only with AUC(0-t) recorded for CCCCCC/C=C\CCCCCCCCCC(=O)N[C@H]1[C@H](OC[C@H]2O[C@H](OP(=O)(O)O)[C@H](NC(=O)CC(=O)CCCCCCCCCCC)[C@@H](OCCCCCCCCCC)[C@@H]2O)O[C@H](COC)[C@@H](OP(=O)(O)O)[C@@H]1OCC[C@@H](CCCCCCC)OC
790

====

- experimentalDetails: Pharmacokinetics in plasma after 72 hours intravenous infusion
- experimentalConditions: female, beagle, dog, 1 mg/kg
measuredAttribute: half-life (h)
Numeric only. Scale: h

Respond only with half-life recorded for CCCCCC/C=C\CCCCCCCCCC(=O)N[C@H]1[C@H](OC[C@H]2O[C@H](OP(=O)(O)O)[C@H](NC(=O)CC(=O)CCCCCCCCCCC)[C@@H](OCCCCCCCCCC)[C@@H]2O)O[C@H](COC)[C@@H](OP(=O)(O)O)[C@@H]1OCC[C@@H](CCCCCCC)OC
32

====

- experimentalDetails: Pharmacokinetics in plasma after 72 hours intravenous infusion
- experimentalConditions: male, beagle, dog, 0.3 mg/kg
measuredAttribute: concentration at 72 h (ng/mL)
Numeric only. Scale: ng/mL

Respond only with concentration at 72 h recorded for CCCCCC/C=C\CCCCCCCCCC(=O)N[C@H]1[C@H](OC[C@H]2O[C@H](OP(=O)(O)O)[C@H](NC(=O)CC(=O)CCCCCCCCCCC)[C@@H](OCCCCCCCCCC)[C@@H]2O)O[C@H](COC)[C@@H](OP(=O)(O)O)[C@@H]1OCC[C@@H](CCCCCCC)OC [E5564]
41300

====

- experimentalDetails: Pharmacokinetics in plasma after 72 hours intravenous infusion
- experimentalConditions: female, beagle, dog, 1 mg/kg
measuredAttribute: AUC(0-t) (µg·h/mL)
Numeric only. Scale: µg·h/mL

Respond only with AUC(0-t) recorded for CCCCCC/C=C\CCCCCCCCCC(=O)N[C@H]1[C@H](OC[C@H]2O[C@H](OP(=O)(O)O)[C@H](NC(=O)CC(=O)CCCCCCCCCCC)[C@@H](OCCCCCCCCCC)[C@@H]2O)O[C@H](COC)[C@@H](OP(=O)(O)O)[C@@H]1OCC[C@@H](CCCCCCC)OC
29600

====

- experimentalDetails: Pharmacokinetics in plasma after 72 hours intravenous infusion
- experimentalConditions: male, beagle, dog, 0.3 mg/kg
measuredAttribute: AUC(0-t) (µg·h/mL)
Numeric only. Scale: µg·h/mL

Respond only with AUC(0-t) recorded for CCCCCC/C=C\CCCCCCCCCC(=O)N[C@H]1[C@H](OC[C@H]2O[C@H](OP(=O)(O)O)[C@H](NC(=O)CC(=O)CCCCCCCCCCC)[C@@H](OCCCCCCCCCC)[C@@H]2O)O[C@H](COC)[C@@H](OP(=O)(O)O)[C@@H]1OCC[C@@H](CCCCCCC)OC
3310
